- system: Steryl-sulfatase (Homo sapiens)
- Sequence (P08842 whole entry): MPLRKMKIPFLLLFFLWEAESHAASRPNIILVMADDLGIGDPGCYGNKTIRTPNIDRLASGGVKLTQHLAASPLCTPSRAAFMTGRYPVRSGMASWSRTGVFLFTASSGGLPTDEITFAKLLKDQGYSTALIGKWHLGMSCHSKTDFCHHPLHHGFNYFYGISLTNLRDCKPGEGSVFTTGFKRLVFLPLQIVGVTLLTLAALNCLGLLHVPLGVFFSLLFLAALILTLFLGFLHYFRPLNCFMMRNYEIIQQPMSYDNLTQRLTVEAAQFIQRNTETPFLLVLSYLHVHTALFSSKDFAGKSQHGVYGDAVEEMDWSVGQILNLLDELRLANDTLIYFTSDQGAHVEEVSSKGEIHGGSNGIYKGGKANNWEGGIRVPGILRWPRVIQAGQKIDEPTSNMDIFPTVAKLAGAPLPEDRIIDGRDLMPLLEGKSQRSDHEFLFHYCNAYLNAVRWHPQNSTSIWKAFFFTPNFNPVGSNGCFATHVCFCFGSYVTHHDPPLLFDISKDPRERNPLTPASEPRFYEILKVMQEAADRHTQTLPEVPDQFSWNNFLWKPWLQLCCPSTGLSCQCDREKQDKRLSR
- method_notes: Inhibition of recombinant human STS transfected in CHO cells using MUS as substrate after 30 mins by fluorescence assay
- Type: cell-based
endpoint: IC50 (nM)
Respond with the bare value in nM.

Ask: Fill in: IC50 of CC(C)N(C(=O)C1=CC[C@H]2[C@@H]3CCc4cc(OS(N)(=O)=O)ccc4[C@H]3CC[C@]12C)C(C)C is ___
Reply: 4

---

- system: UniProt P08842
- method_notes: Inhibition of human placenta STS using NPS as substrate after 15 mins by microplate reader analysis
endpoint: IC50 (µM)
Respond with the bare value in µM.

These recorded examples may help you get a feel for the data.
O=c1oc2cc(OP(=S)(Cl)Oc3ccc4c5c(c(=O)oc4c3)CCCC5)ccc2c2c1CCCC2 | 7.76
NP(=S)(Oc1ccc2c3c(c(=O)oc2c1)CCCCC3)Oc1ccc2c3c(c(=O)oc2c1)CCCCC3 | 88.8

Ask: Fill in: IC50 of NP(=S)(Oc1ccc2c3c(c(=O)oc2c1)CCC3)Oc1ccc2c3c(c(=O)oc2c1)CCC3 is ___
Reply: 74.3

Each recorded value in this set is attributed to ChEMBL document CHEMBL3612034.
